Molecular target: p38α MAP kinase (Homo sapiens, UniProt Q16539)
Sequence (Q16539 whole entry): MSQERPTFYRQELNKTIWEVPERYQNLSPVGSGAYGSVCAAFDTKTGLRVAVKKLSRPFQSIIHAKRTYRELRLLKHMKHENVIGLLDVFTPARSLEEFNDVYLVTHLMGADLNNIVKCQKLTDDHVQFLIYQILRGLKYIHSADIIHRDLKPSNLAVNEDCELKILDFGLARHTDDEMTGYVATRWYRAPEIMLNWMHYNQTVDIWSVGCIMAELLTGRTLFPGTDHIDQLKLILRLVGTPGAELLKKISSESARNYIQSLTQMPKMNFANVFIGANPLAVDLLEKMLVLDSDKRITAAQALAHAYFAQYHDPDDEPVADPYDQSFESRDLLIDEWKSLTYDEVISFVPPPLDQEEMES
Test: Assay to determine the inhibition of p38α MAP kinase (phosphorylation of ATF-2, IC50-values)
Details: ATF-2 coated microtiter plates, 10 ng activated p38α, 100 μM ATP, 1 h at 37° C.; read-out: IC50, inhibition of the phosphorylation of ATF-2 by p38a MAP kinase
Overview of recorded IC50 for various compounds

// below: answered compounds
Query block: IC50 for CSc1nc(-c2ccc(F)cc2)c(-c2ccnc(NC3CCCCC3O)c2)n1C (stereo not shown) [Example 17] ?
Result block: 1000 to 10000 nM

Query block: IC50 for `COCCn1c(SC)nc(-c2ccc(F)cc2)c1-c1ccnc(NC(=O)C2CCOCC2)c1` ?
Result block: < 1000 nM

Query block: IC50 for CSc1nc(-c2ccc(F)cc2)c(-c2ccnc(NC3CCCCC3=O)c2)n1C (stereo not shown) ?
Result block: < 1000 nM

***
Query block: IC50 for CSc1nc(-c2ccc(F)cc2)c(-c2ccnc(NCC(C)O)c2)n1C (stereo not shown) ?
Result block: < 1000 nM

Query block: IC50 for Cn1c([S+](C)[O-])nc(-c2ccc(F)cc2)c1-c1ccnc(NC2CCCCC2O)c1 (stereo not shown) ?
Result block: 1000 to 10000 nM

Query block: IC50 for COCCn1c(SC)nc(-c2ccc(F)cc2)c1-c1ccnc(NC2CCC(O)CC2)c1 (stereo not shown) ?
Result block: < 1000 nM

Query block: IC50 for COCCn1c(SC)nc(-c2ccc(F)cc2)c1-c1ccnc(NC2CCCCC2O)c1 (stereo not shown) [Example 19] ?
Result block: 1000 to 10000 nM
